test.target: Protein deacetylase HDAC6 (Homo sapiens) (UniProt Q9UBN7)
Sequence (whole entry): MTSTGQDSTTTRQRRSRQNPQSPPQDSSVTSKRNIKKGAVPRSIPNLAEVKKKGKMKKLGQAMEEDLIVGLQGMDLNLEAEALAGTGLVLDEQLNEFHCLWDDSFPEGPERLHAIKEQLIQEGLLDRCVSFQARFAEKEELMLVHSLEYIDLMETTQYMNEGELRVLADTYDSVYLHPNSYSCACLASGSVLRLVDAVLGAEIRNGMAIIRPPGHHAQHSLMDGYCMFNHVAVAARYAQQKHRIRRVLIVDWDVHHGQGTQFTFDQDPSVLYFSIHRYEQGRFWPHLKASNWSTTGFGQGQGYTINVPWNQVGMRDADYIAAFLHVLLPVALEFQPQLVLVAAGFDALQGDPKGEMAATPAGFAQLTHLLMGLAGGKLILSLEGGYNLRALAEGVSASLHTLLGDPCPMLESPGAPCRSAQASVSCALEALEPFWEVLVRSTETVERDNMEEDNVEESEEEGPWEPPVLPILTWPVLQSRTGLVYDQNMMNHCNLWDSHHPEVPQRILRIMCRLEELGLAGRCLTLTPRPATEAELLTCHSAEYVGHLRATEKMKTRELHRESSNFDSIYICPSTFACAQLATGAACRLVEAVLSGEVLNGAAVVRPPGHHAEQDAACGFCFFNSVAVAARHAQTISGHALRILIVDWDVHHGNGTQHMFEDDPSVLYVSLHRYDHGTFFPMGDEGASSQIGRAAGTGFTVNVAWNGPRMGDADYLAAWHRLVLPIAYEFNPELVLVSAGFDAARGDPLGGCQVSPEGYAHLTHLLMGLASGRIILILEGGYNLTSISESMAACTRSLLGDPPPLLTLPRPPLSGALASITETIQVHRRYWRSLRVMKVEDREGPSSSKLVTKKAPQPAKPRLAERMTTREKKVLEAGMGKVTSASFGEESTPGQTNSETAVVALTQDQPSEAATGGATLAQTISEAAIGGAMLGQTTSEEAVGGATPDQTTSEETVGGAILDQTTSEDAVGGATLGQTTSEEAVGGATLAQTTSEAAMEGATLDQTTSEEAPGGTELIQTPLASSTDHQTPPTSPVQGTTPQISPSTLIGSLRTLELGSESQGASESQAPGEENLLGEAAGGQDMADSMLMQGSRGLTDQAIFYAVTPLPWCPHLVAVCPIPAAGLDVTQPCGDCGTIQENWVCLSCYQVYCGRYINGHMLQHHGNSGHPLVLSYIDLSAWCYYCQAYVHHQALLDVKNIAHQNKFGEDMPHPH
applied.conditions: at 10 µM
About 390 (7%) of roughly 5,600 compounds showed an effect of 50% or more. What follows is part of a selection rich in strong results, with near analogues and random picks from the rest.
Label 1 when inhibition is at or above 10%; anything below gets 0.

molecule=CCCCC/C=C\C/C=C\C/C=C\CCCCC(=O)O test_target="Protein deacetylase HDAC6 (Homo sapiens) (UniProt Q9UBN7)" category=1
molecule=Cc1ccc(Sc2ccccc2N2CCNCC2)c(C)c1 test_target="Protein deacetylase HDAC6 (Homo sapiens) (UniProt Q9UBN7)" category=0
molecule=CCCCCCCCCCCCCCCC(=O)NCCO test_target="Protein deacetylase HDAC6 (Homo sapiens) (UniProt Q9UBN7)" category=0
molecule=O=C(CCCCCCNC(=O)c1cnc(N(c2ccccc2)c2ccccc2)nc1)NO test_target="Protein deacetylase HDAC6 (Homo sapiens) (UniProt Q9UBN7)" category=1
molecule=Oc1nc(O)c2nc(O)[nH]c2n1 test_target="Protein deacetylase HDAC6 (Homo sapiens) (UniProt Q9UBN7)" category=1
molecule=Oc1cc(O)cc(O)c1 test_target="Protein deacetylase HDAC6 (Homo sapiens) (UniProt Q9UBN7)" category=1
molecule=CC1(N)CCN(c2cnc(-c3cccc(Cl)c3Cl)c(N)n2)CC1 test_target="Protein deacetylase HDAC6 (Homo sapiens) (UniProt Q9UBN7)" category=1
molecule=C[C@@H]1C[C@H]2[C@@H]3CCC4=CC(=O)C=C[C@]4(C)[C@@]3(Cl)[C@@H](O)C[C@]2(C)[C@@]1(OC(=O)c1ccco1)C(=O)CCl test_target="Protein deacetylase HDAC6 (Homo sapiens) (UniProt Q9UBN7)" category=0
molecule=CCOc1ccccc1C(=O)O test_target="Protein deacetylase HDAC6 (Homo sapiens) (UniProt Q9UBN7)" category=0
molecule=COc1cc(/C=C2\CCC/C(=C\c3ccc(O)c(OC)c3)C2=O)ccc1O test_target="Protein deacetylase HDAC6 (Homo sapiens) (UniProt Q9UBN7)" category=1
molecule=O=c1c(O)c(-c2cc(O)c(O)c(O)c2)oc2cc(O)cc(O)c12 test_target="Protein deacetylase HDAC6 (Homo sapiens) (UniProt Q9UBN7)" category=1
molecule="COc1ccc(-c2nc3cc(C4=NNC(=O)CC4C)ccc3[nH]2)cc1 (stereo not drawn)" test_target="Protein deacetylase HDAC6 (Homo sapiens) (UniProt Q9UBN7)" category=1
molecule=c1ccc(NCc2ccc(CNc3ccccn3)cc2)nc1 test_target="Protein deacetylase HDAC6 (Homo sapiens) (UniProt Q9UBN7)" category=0
